# measurement.target: Indoleamine 2,3-dioxygenase 2 (Homo sapiens)
# measurement.description: Inhibition of human IDO2 at 10 uM using L-tryptophan as substrate incubated for 30 min assessed as reduction in conversion of N-formyl kynurenine to kynurenine relative to control
# reported inhibition; entries follow

// solved cases for inhibition follow
{"cpd.smiles": "O=C1c2c(Cl)cccc2-n2c1nc1ccccc1c2=O", "inhibition": "18 to 47%"}
{"cpd.smiles": "Cn1cc(C[C@H](N)C(=O)O)c2ccccc21", "inhibition": "8%"}
{"cpd.smiles": "O=C1c2cc([N+](=O)[O-])ccc2-n2c1nc1ccccc1c2=O", "inhibition": "63%"}
{"cpd.smiles": "O=C1c2ccc(Cl)cc2-n2c1nc1ccccc1c2=O", "inhibition": "18 to 47%"}
{"cpd.smiles": "Cc1ccc2c(c1)C(=O)c1nc3ccccc3c(=O)n1-2", "inhibition": "18 to 47%"}

Exercise: Could you share what inhibition was measured for "O=C1c2cc(F)ccc2-n2c1nc1ccccc1c2=O" , tested on Indoleamine 2,3-dioxygenase 2 (Homo sapiens)?
Key: 18 to 47%

Exercise: Also check "O=C1c2cc(Br)ccc2-n2c1nc1ccccc1c2=O"
Key: 18 to 47%

Exercise: Also check "O=C1c2ccccc2-n2c1nc1ccc(F)cc1c2=O"
Key: 18 to 47%

Exercise: Also check "Cn1cc(C[C@@H](N)C(=O)O)c2ccccc21"
Key: 8%

Exercise: Also check "O=C1c2ccccc2-n2c1nc1ccccc1c2=O"
Key: 18 to 47%

Exercise: Also check "O=C1c2cc(F)ccc2-n2c1nc1ccc(F)cc1c2=O"
Key: 18 to 47%

---

# reported pIC50; entries follow
# measurement.target: Indoleamine 2,3-dioxygenase 1 (Homo sapiens, UniProt P14902)
# Sequence (P14902 whole entry): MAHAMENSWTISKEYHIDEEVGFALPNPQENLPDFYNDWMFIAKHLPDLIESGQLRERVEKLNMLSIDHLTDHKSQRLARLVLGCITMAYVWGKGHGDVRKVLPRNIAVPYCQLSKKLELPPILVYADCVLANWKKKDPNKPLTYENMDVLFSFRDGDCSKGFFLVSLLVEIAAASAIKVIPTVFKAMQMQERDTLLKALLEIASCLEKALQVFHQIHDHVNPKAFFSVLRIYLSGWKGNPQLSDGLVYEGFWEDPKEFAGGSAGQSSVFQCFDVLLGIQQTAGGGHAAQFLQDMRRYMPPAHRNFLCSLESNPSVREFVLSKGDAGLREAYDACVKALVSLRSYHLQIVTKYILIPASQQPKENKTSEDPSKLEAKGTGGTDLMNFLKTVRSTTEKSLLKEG
# measurement.description: Inhibition of IDO1 in human U87MG cells in presence of L-tryptophan incubated for 24 h
pIC50: −log10 of the molar value.

{"cpd.smiles": "Cc1ccc2c(c1)C(=O)c1nc3ccccc3c(=O)n1-2", "measurement.target": "Indoleamine 2,3-dioxygenase 1 (Homo sapiens, UniProt P14902)", "observed.measurement": "< 2.41"}

Now for another entry.
Exercise: Reported pIC50 for "O=C1c2ccccc2-n2c1nc1ccc(F)cc1c2=O" : what is it?
Key: < 2.41

---

# measurement.target: Indoleamine 2,3-dioxygenase 1 (Homo sapiens, UniProt P14902)
pKi: −log10 of the molar value.
readout.kind: pKi

Exercise: Reported pKi for "O=C1c2ccccc2-n2c1nc1ccc(F)cc1c2=O" : what is it?
Key: < 2.41

Sourced from ChEMBL document CHEMBL4482322
